Data origin, for the record: patent US20140004243A1

- test target: Human ENaC δ, β and γ subunit (Homo sapiens, UniProt P51168+P51170+P51172)
- Construct: expressed in transfected cells; host or cells: Xenopus laevis (African clawed frog) oocytes injected with cRNA
- Sequence (P51172 whole entry): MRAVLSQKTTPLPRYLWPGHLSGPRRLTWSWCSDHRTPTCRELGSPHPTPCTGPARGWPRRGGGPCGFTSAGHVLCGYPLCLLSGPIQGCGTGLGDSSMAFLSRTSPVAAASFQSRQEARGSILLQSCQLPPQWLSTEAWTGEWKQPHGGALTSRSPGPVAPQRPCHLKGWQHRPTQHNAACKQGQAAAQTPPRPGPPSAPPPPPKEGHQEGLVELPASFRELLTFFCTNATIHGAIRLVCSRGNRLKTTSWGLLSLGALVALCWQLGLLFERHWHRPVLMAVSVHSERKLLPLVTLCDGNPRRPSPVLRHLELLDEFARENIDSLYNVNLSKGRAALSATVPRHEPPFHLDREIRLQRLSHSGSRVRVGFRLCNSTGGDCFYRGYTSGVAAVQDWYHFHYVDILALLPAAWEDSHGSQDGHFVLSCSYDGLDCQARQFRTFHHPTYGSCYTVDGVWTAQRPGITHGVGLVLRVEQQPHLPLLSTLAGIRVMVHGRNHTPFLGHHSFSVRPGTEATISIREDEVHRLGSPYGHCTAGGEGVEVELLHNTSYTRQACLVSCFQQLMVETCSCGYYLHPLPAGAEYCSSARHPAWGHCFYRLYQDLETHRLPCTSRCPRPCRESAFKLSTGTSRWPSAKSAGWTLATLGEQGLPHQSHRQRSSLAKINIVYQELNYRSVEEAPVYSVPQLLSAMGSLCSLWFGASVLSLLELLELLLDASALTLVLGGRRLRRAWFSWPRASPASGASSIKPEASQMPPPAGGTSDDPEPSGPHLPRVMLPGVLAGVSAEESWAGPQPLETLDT
- Sequence (P51168 whole entry): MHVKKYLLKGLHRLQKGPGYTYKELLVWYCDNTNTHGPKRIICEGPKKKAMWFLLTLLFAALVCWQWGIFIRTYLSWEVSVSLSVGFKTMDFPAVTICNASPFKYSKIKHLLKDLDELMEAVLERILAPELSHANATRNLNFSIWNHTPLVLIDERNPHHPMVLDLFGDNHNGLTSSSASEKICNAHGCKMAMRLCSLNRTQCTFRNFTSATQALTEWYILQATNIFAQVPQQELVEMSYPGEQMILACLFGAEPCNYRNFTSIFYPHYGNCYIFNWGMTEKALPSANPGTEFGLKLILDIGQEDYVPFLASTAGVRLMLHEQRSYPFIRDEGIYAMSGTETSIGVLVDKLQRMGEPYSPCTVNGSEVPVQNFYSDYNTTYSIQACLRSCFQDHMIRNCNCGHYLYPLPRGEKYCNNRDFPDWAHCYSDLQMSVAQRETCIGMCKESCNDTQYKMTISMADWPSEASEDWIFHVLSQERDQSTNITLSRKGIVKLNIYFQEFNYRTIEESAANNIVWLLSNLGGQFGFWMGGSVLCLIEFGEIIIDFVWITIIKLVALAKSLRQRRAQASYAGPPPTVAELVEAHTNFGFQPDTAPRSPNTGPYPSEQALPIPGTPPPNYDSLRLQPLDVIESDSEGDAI
- Sequence (P51170 whole entry): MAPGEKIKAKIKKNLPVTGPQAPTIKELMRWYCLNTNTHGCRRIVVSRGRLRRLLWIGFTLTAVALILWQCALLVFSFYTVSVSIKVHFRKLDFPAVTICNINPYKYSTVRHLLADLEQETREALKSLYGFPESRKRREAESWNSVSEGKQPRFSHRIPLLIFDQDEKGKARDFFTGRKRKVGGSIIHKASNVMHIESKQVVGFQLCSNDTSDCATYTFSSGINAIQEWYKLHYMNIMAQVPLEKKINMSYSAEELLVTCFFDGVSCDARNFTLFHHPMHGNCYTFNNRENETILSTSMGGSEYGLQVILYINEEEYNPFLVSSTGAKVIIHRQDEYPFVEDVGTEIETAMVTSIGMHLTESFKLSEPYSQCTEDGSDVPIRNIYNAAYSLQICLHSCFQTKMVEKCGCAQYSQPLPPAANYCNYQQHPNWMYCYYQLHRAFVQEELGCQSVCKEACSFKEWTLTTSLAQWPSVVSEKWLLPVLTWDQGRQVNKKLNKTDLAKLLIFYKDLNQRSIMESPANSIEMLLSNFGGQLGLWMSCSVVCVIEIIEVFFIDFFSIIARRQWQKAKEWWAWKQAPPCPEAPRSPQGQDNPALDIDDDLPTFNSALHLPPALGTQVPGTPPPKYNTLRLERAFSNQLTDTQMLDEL
- procedure details: Measurement of ENaC activation potency (MED) in ENaC-expressing oocyte, Two Electrode Voltage Clamp
- Type: cell-based
- condition label: minimum effective dose at which current started to increase; ENaC-expressing African clawed frog oocyte; smaller MED = higher ENaC activation potency
Please respond with reported MED for every item in the list.

Could you share what MED was measured for COc1ccccc1CNC(=S)NCCc1ccccc1 , tested on Human ENaC δ, β and γ subunit (Homo sapiens, UniProt P51168+P51170+P51172)? 1 to 3 µM

Consider next the compound C[C@@H](NC(=S)NNCc1c(O)cccc1O)c1ccccc1 in the same way. 3 to 10 µM

Consider next the compound S=C(NCCc1ccccc1)NCC12CC3CC(CC(C3)C1)C2 in the same way. 10 µM

Consider next the compound COC(=O)c1ccccc1NC(=S)N(C)CCc1ccccc1 in the same way. 3 µM

Consider next the compound CN(CCc1ccccc1)C(=S)NCc1ccccc1 in the same way. 3 to 10 µM

Consider next the compound C[C@@H](NC(=S)N/N=C/c1c(O)cccc1O)c1ccccc1 in the same way. 3 to 10 µM
